Measured On: tryptase enzyme (Homo sapiens, UniProt P20231)
Construct: purchased Millipore Inc., Westbury, Mass
Sequence (P20231 31-275): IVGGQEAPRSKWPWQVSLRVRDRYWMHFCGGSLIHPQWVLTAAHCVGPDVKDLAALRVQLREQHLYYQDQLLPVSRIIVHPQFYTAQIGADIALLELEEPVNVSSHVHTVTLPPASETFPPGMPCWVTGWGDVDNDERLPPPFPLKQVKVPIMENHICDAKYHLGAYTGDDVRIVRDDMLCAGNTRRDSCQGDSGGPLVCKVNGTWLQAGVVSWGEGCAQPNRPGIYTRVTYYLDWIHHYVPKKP
Assay Name: Tryptase enzyme inhibition (cleavage of tosyl-gly-pro-lys-pNA, absorbance at 405 nm)
Type: biochemical
Condition Description: 2 h at 37° C.; relative to controls
Procedure: A. Tryptase Enzyme Inhibition Tryptase activity was determined by monitoring the production of chromophore p-nitroaniline (pNA) generated by the cleavage of tosyl-gly-pro-lys-pNA by the tryptase enzyme according to the manufacturer's protocol (Millipore Inc., Westbury, Mass.). […] After the incubation, absorbance at 405 nm was measured in each well using a Tecan M200 microplate reader.
Reported Endpoint: IC50 (µM)
Give the number; µM is assumed, so skip it.

In plain terms, CCCCCN(c1ccc(N)cc1)c1ccc(S)cc1.Cl [III, hydrochloride salt] has a documented IC50 of 493
